target: soluble guanylate cyclase (human GUCYA3 and GUCYB3) overexpressed in CHO cells (Homo sapiens (Human), UniProt Q02108+Q02153); assay: CHO cellular assay (cGMP production, Cisbio cGMP HTRF kit); assay type: cell-based; conditions: CHO GUCY clone 8E10, cGMP production, assay buffer with 1 mM IBMX and 20 uM ODQ, 1 h room temperature; minimum quantification limit 0.5 nM (listed 0.5 nM means ≤0.5 nM); read-out: EC50
Sequence (Q02108 whole entry partner): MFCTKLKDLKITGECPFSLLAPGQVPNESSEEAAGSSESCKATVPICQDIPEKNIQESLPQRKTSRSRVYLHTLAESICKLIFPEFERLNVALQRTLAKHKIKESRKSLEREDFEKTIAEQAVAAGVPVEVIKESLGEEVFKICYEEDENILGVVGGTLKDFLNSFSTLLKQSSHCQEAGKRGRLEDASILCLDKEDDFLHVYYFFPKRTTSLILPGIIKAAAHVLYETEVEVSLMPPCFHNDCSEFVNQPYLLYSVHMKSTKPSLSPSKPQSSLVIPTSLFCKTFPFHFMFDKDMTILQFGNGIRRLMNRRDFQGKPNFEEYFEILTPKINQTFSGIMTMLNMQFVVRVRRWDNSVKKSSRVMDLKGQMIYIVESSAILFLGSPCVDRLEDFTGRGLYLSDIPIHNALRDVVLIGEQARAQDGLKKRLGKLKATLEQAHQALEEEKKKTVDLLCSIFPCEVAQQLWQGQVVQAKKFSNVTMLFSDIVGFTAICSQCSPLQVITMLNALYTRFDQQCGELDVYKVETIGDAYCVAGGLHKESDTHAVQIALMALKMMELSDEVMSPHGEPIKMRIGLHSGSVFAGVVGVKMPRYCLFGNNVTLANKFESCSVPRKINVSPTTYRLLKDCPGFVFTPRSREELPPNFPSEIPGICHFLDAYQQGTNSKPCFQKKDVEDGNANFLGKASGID
Sequence (Q02153 whole entry): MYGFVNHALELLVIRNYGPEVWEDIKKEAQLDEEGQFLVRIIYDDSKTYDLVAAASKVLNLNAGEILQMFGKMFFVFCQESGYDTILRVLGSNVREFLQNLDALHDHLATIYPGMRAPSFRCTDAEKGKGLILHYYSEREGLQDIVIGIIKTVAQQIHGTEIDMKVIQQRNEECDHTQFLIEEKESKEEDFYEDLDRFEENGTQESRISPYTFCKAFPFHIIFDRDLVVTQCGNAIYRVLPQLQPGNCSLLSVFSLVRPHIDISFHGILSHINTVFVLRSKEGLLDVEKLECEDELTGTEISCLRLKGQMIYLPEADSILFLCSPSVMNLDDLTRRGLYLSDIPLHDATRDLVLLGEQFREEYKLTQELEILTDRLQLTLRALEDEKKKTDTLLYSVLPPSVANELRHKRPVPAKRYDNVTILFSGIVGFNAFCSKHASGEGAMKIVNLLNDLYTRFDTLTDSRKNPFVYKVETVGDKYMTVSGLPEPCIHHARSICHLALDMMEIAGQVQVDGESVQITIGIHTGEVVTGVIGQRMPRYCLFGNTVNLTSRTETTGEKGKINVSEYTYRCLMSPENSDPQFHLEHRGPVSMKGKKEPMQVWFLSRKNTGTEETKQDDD
readout: EC50

molecule	EC50
CCc1cc(NC2CCc3cccc(-c4cccc(-n5ncc(C(=O)O)c5CC)n4)c32)ccc1C1CCN(C(=O)CC2CC2)CC1 (single isomer, unassigned; (+)) [(+)-53-2]	1 nM
CCC[C@H](O)C(=O)N1CCC(c2ccc(CC3CCc4cccc(-c5cccc(-n6ncc(C(=O)O)c6CC)n5)c43)c(C)c2)CC1 (single isomer, unassigned; (+)) [40-3 (+)]	≤ 0.5 nM
CCc1cc(CN2CC(C)c3cccc(-c4cccc(-n5ncc(C(=O)O)c5CC)n4)c32)ccc1C1CCN(C(=O)C2CC2)CC1 (single isomer, unassigned; (+)) [(+)-20-1]	≤ 0.5 nM
C=CCOC(=O)N1CCC(c2ccc(NC3CCc4cccc(-c5cccc(-n6ncc(C(=O)O)c6CC)n5)c43)cc2CC)CC1 (single isomer, unassigned; (-)) [(−)-52-3]	3 nM
CCC[C@H](O)C(=O)N1CCC(c2ccc(O[C@H]3CCc4cccc(-c5cccc(-n6ncc(C(=O)O)c6CC)n5)c43)cc2CC)CC1 [Example 31-1]	≤ 0.5 nM
Cc1cc(C2CCN(C(=O)C3CC3)CC2)ccc1OC1CCc2cccc(-c3cccc(-n4ncc(C(=O)O)c4C(F)(F)F)c3)c21 (single isomer, unassigned; (+)) [Example (+)-1. b)]	≤ 0.5 nM
Cc1cc(C2CCN(C(=O)C3CC3)CC2)ccc1NC1COc2cccc(-c3cccc(-n4ncc(C(=O)O)c4C)n3)c21 (single isomer, unassigned; (+)) [Example 34a]	≤ 0.5 nM
Cc1cc(C2CCN(CC(F)(F)F)CC2)ccc1O[C@H]1CCc2cccc(-c3cccc(-n4ncc(C(=O)O)c4C(F)(F)F)n3)c21 [Example 5-4]	2 nM

Request: Record request: EC50 value, item CCc1cc(CC2CCc3cccc(-c4cccc(-n5ncc(C(=O)O)c5CC)n4)c32)ccc1C1CCN(C(=O)C2CC2)CC1 (single isomer, unassigned; (+)) [38-1 (+)]
Result: ≤ 0.5 nM

Request: Record request: EC50 value, item CCc1cc(CC2CCc3cccc(-c4cccc(-n5ncc(C(=O)O)c5C)n4)c32)ccc1C1CCN(C(=O)C2CC2)CC1 (single isomer, unassigned; (+)) [38-2 (+)]
Result: ≤ 0.5 nM

Request: Record request: EC50 value, item CCc1cc(CN2CC(C)c3cccc(-c4cccc(-n5ncc(C(=O)O)c5CC)n4)c32)ccc1C1CCN(C(=O)[C@H](C)O)CC1 (single isomer, unassigned) [Example 17a]
Result: ≤ 0.5 nM
